# experimental.target: human α1H T-type channels (Homo sapiens, UniProt O95180)
# Sequence (O95180 whole entry): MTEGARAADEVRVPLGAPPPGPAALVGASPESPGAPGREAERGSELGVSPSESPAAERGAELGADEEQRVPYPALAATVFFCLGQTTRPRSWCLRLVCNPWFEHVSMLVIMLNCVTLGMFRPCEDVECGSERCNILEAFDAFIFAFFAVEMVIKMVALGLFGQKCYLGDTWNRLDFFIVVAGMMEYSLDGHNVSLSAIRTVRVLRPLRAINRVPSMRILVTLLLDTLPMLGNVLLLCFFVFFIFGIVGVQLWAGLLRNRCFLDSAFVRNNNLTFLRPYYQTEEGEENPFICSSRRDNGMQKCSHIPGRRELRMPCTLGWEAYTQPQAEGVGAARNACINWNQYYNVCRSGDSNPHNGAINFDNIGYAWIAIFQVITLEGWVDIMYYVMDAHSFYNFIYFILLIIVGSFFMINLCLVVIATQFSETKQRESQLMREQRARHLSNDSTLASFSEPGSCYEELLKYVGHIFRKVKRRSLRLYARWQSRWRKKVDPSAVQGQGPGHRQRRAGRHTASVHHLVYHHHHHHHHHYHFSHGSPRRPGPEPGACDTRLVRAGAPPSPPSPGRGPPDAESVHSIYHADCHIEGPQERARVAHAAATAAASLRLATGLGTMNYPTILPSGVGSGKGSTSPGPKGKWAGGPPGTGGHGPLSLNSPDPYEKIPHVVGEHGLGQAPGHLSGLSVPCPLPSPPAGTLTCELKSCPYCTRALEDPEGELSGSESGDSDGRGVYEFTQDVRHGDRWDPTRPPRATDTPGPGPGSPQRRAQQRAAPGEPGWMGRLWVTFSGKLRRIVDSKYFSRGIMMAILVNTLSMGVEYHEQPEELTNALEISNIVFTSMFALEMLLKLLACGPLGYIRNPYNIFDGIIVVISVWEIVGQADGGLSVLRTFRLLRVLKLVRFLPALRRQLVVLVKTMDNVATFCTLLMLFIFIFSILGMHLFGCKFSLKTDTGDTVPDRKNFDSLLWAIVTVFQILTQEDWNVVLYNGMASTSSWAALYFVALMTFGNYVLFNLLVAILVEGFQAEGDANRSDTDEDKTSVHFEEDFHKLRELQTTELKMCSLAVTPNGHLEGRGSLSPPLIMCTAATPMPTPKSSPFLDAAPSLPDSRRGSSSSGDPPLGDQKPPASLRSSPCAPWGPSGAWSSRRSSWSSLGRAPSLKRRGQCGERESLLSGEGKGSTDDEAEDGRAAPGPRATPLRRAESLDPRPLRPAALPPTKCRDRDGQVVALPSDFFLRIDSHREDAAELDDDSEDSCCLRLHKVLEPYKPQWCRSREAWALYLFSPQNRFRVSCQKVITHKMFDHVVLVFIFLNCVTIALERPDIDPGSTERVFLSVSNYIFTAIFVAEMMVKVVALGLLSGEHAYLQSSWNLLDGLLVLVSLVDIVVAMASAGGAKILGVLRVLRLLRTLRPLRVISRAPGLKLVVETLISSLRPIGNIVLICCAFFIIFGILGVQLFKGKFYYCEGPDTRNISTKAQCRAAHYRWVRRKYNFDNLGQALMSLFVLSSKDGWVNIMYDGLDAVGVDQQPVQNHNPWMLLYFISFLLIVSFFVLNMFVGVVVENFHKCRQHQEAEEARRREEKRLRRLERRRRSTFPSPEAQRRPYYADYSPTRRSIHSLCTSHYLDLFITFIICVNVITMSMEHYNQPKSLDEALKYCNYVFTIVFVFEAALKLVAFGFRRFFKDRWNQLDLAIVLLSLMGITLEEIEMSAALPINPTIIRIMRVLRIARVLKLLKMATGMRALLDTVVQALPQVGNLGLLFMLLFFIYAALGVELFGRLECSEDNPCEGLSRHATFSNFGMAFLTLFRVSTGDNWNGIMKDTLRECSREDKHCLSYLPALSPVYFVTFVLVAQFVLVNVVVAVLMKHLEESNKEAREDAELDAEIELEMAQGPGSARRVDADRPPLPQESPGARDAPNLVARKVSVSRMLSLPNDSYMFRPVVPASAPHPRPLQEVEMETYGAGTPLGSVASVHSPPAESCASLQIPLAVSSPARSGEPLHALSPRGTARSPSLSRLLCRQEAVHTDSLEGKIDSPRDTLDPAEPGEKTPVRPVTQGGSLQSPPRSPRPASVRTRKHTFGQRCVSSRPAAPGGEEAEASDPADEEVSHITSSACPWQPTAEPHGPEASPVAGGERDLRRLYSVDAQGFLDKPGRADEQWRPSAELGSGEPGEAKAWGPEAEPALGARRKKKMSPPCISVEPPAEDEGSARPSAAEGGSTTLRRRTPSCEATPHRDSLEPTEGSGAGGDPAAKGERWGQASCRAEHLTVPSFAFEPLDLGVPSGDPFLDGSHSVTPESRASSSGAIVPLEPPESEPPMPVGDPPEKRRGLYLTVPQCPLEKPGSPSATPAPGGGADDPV
# experimental.details: T-type calcium channel block, whole cell patch clamp, α1H
# condition: HEK cells stably expressing human α1H; mainly non-inactivated protocol; values above 10,000 nM represented as 10000
Collected IC50 values appear next to each entry.
Enter your answer as a number in nM; do not include the unit.

Worked examples, 5 molecules total:
O=C(NC1CCC(S(=O)(=O)c2cccc(C(F)(F)F)c2)CC1)c1cnc(C(F)(F)F)nc1 (stereo not drawn) [Compound 9] ... 1030
COc1cc(F)cc(C(=O)N[C@H]2CC[C@](F)(S(=O)(=O)c3cccc(C(F)(F)F)c3)CC2)c1 [Compound 82] ... 1810
O=C(CNC1CCC(F)(F)CC1)N[C@H]1CC[C@H](CS(=O)(=O)c2cccc(C(F)(F)F)c2)CC1 [Compound 165] ... 1390
O=C(CN[C@H]1CC[C@H](CS(=O)(=O)c2cccc(C(F)(F)F)c2)CC1)NCC(F)(F)F [Compound 113] ... 5350
O=C(N[C@H]1C[C@H](CS(=O)(=O)c2cccc(C(F)(F)F)c2)C1)c1ccc(F)c(Cl)c1 [Compound 348] ... 540

Record O=C(N[C@H]1CC[C@@H](S(=O)(=O)c2cc(F)cc(C(F)(F)F)c2)CC1)c1ccc(F)c(Cl)c1 [Compound 320] / human α1H T-type channels (Homo sapiens, UniProt O95180), IC50 recorded as 190

The measured IC50 that O=S(=O)(NC[C@H]1C[C@H](S(=O)(=O)c2cccc(C(F)(F)F)c2)C1)c1cccc(C(F)(F)F)c1 [Compound 427] showed for human α1H T-type channels (Homo sapiens, UniProt O95180) is 880

I looked up O=S(=O)(CCC(F)(F)F)NC[C@H]1C[C@H](S(=O)(=O)c2cccc(C(F)(F)F)c2)C1 [Compound 425] and its IC50 for human α1H T-type channels (Homo sapiens, UniProt O95180) was 1070

Record O=C(N[C@H]1CC[C@@H](S(=O)(=O)c2cccc(C(F)(F)F)c2)CC1)c1ccnn1CC(F)(F)F [Compound 193] ; system human α1H T-type channels (Homo sapiens, UniProt O95180); IC50 = 1590
